Answer each item with its documented RLM.
Assay: Microsomal stability assay, rat liver microsomes;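 also: rat liver microsomes (0.25 mg/mL) with about 1 µM compound plus 1 mM NADPH, pH 7.4, 37 °C for 30 min, parent left measured by LC-MS/MS against 0 min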
Settings: rat liver microsomal data
One number for each entry, in µL/min/mg.

Example cases with answers are listed next.
compound	valueUnit	RLM
CO[C@H](C)C(=O)N[C@@H](Cc1cc(F)cc(F)c1)[C@H](O)CN[C@H]1CC2(CCC2)Oc2c(-c3cnc[nH]3)cc(CC(C)C)cc21	µL/min/mg	408
C#Cc1cccc(C[C@H](NC(=O)CC)[C@H](O)CN[C@H]2CC3(CCC3)Oc3ncc(CC(C)(C)C)cc32)c1	µL/min/mg	29
COCC(=O)N[C@@H](Cc1ccc(F)cc1)[C@H](O)CN[C@H]1CC2(CCC2)Oc2c(-c3ccncc3)cc(CC(C)(C)C)cc21	µL/min/mg	60
COCC(=O)N[C@@H](Cc1cc(F)cc(F)c1)[C@H](O)CN[C@H]1CC2(CCC2)Oc2c1cc(CC(C)(C)C)nc2-c1ccncc1	µL/min/mg	72
COCC(=O)N[C@@H](Cc1ccc2c(c1)OCO2)[C@H](O)CN[C@H]1CC2(CCC2)Oc2ccc(C[C@@H](C)F)cc21 [compound 558]	µL/min/mg	362

Exam item: I'd like to know its RLM. The compound in question is COCC(=O)N[C@@H](Cc1cc(F)cc(F)c1)[C@H](O)CN[C@H]1CC2(CCC2)Oc2c(-c3cnc[nH]3)cc(CC(C)C)cc21
Marked response: 405

====

Kindly supply the reported log10 of IC50 values for the records listed here.
System: Aβ40 in conditioned medium of cells stably expressing Amyloid Precursor Protein (APP)
Assay: In vitro BACE cell-based assay (Aβ40 in conditioned medium, sandwich ELISA);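 also: compounds added as a dilution series, secreted peptide quantified by europium time-resolved fluorescence readout, potency fitted from percent of control versus compound concentration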
Details: Homo sapiens, HEK293, HEK cell-based assay, IC50's in uM; read-out: HEK cell assay
log10 IC50, µM

// solved cases for log10 of IC50 follow
compound	log10 of IC50
CO[C@H](C)C(=O)N[C@@H](Cc1cccc(Br)c1)[C@H](O)CN[C@H]1CC2(CCC2)Oc2ncc(CC(C)C)cc21	-0.93
C=Cc1cccc(C[C@H](NC(=O)COC)[C@H](O)CN[C@H]2CC3(CCC3)Oc3ncc(CC(C)C)cc32)c1	-1.42
CC(C)(C)Cc1cnc2c(c1)[C@@H](NC[C@@H](O)[C@H](Cc1ccc3c(c1)OCO3)NC(=O)CC1CCS(=O)(=O)C1)CC1(CCC1)O2 (stereo partly drawn)	-1.30
CC(C)Cc1cnc2c(c1)[C@@H](NC[C@H](O)[C@@H](Cc1cccc(-c3nccs3)c1)NC(=O)[C@@H]1CCCO1)CC1(CCC1)O2	-0.18
C#Cc1cc(C[C@H](NC(=O)COCC)[C@H](O)CN[C@H]2CC3(CCC3)Oc3ncc(CC(C)(C)C)cc32)ccc1F	-1.64
COCC(=O)N[C@@H](Cc1cc(F)cc(Cl)c1)[C@H](O)CN[C@H]1CC2(CCC2)Oc2ncc(CC(C)(F)F)cc21	-1.72
CO[C@H](C)C(=O)N[C@@H](Cc1ccc(F)c(-c2nccs2)c1)[C@H](O)CN[C@H]1CC2(CCC2)Oc2ncc(CC(C)(C)F)cc21	-1.00
COCC(=O)N[C@@H](Cc1cccc(-c2nccs2)c1)[C@H](O)CN[C@H]1CC2(CCC2)Oc2cnc(CC(C)(C)C)cc21	-1.27

Kindly give each listed record's log10 of IC50.
1. COCC(=O)N[C@@H](Cc1cccc(F)c1)[C@H](O)CN[C@H]1CC2(CCC2)Oc2nc3c(cc21)[C@H](C(C)C)CO3
2. COCC(=O)N[C@@H](Cc1cc(F)cc(-c2nccs2)c1)[C@H](O)CN[C@H]1CC2(CCC2)Oc2ccc(CC(C)C)cc21
3. COCC(=O)N[C@@H](Cc1ccc(-c2nccs2)cc1)[C@H](O)CN[C@H]1CC2(CCC2)Oc2ncc(CC(C)C)cc21
4. COC(OC)C(=O)N[C@@H](Cc1cc(F)cc(-c2nccs2)c1)[C@H](O)CN[C@H]1CC2(CCC2)Oc2ncc(CC(C)(F)F)cc21
5. C#CCCC(=O)N[C@@H](Cc1ccc2c(c1)OCO2)[C@H](O)CN[C@H]1CC2(CCC2)Oc2ncc(CC(C)(C)C)cc21
6. Cc1nc(CN2CCO[C@@H](C(=O)N[C@@H](Cc3ccc(F)cc3)[C@H](O)CN[C@H]3CC4(CCC4)Oc4ncc(CC(C)(C)C)cc43)C2)cs1

Marked response:
0.11
-1.40
-0.56
-1.23
-1.19
-2.15

====

Target: Beta Secretase enzyme (BACE) (Homo sapiens)
Sequence (P56817 46-501): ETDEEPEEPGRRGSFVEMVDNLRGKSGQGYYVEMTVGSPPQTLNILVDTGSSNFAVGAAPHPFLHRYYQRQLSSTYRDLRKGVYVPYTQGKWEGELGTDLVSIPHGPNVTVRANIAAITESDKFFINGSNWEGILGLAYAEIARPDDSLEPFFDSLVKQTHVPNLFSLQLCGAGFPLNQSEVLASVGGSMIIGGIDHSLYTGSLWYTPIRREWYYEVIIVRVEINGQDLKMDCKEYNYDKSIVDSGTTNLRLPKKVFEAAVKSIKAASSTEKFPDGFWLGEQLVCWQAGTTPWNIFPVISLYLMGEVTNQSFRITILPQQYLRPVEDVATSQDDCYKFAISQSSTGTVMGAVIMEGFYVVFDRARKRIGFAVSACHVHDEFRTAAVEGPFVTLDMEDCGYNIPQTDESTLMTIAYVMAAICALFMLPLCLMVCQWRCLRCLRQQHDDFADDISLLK
Test: In vitro enzymatic BACE FRET (fluorescence resonance energy transfer) assay;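 also: fluorescence read after 1 h with 50 nM quenched peptide substrate spanning the BACE cleavage site, in pH 4.2 acetate buffer containing 10% DMSO and nonionic detergent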
Assay type: biochemical
Settings: BACE enzyme assay; read-out: BACE1 FRET assay
reportedEndpoint: IC50
Reply with the number, then its unit.

molecule	IC50
CC(C)(C)Cc1cnc2c(c1)[C@@H](NC[C@@H](O)[C@H](Cc1ccc3c(c1)OCO3)NC(=O)[C@H]1CCO1)CC1(CCC1)O2	18 nM

Report IC50 for each item below.
1. CO[C@@H](C)C(=O)N[C@@H](Cc1ccc2c(c1)OCO2)[C@H](O)CN[C@H]1CC2(CCC2)Oc2ccc(C[C@@H](C)F)cc21
2. CC(=O)N[C@@H](Cc1ccc2c(c1)OCO2)[C@H](O)CN[C@H]1CC2(CCC2)Oc2ncc(C(F)(F)C(C)(C)C)cc21

Marked response:
1. 1360 nM
2. 220 nM

====

Target: CYP3A4 (CYP3A) (Homo sapiens);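 also: inhibition of CYP3A-mediated 1-hydroxymidazolam formation after 10 min incubation with NADPH, quantified by HPLC MS relative to metabolite produced without test compound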
Sequence (P08684 2-503): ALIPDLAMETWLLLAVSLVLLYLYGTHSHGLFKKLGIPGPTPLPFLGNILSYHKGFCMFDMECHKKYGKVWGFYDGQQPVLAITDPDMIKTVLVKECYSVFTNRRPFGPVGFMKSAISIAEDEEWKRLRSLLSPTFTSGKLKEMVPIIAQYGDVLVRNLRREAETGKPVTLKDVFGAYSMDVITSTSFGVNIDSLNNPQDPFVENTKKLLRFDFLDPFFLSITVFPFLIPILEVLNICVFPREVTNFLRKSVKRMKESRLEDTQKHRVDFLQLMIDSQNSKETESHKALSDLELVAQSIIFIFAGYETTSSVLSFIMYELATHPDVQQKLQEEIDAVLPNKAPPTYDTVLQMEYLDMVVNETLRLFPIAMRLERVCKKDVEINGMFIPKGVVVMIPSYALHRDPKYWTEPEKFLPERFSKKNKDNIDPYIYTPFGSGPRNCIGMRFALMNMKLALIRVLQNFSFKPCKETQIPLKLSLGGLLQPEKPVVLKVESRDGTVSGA
Test: in vitro
Conditions: microsomes, pH 7.4
reportedEndpoint: pIC50
Answers are plain numbers, as −log10 of the molar value.

Example entries and their recorded answers appear below.
compound	observedMeasurement
CO[C@H](C)C(=O)N[C@@H](Cc1cccc(F)c1)[C@H](O)CN[C@H]1CC2(CCC2)Oc2c1cc(CC(C)(C)C)nc2-n1ccnc1 [compound 507]	7.00
CC(=O)N[C@@H](Cc1ccc2c(c1)OCO2)[C@H](O)CN[C@H]1CC2(CCC2)Oc2ncc(CC(F)(F)F)cc21 [compound 517]	6.30
CO[C@H](C)C(=O)N[C@@H](Cc1cc(F)cc(-c2nccs2)c1)[C@H](O)CN[C@H]1CC2(CCC2)Oc2ncc(CC(C)C)cc21 [Example 761]	7.00
CO[C@H](C)C(=O)N[C@@H](Cc1ccc(F)cc1)[C@H](O)CN[C@H]1CC2(CCC2)Oc2c1cc(CC(C)C)cc2-n1ccnc1 [compound 482]	7.00
COCC(=O)N[C@@H](Cc1ccccc1)[C@H](O)CN[C@H]1CC2(CCC2)Oc2c1cc(CC(C)(C)C)nc2-c1ccncc1 [Example 541]	7.00

Give pIC50 for each of the items listed below.
1. COCC(=O)N[C@@H](Cc1ccc2c(c1)OCO2)[C@H](O)CN[C@H]1CC2(CCC2)Oc2nc(F)c(CC(C)(C)C)cc21 [compound 485]
2. CC(=O)N[C@@H](Cc1ccc(F)c(-c2nccs2)c1)[C@H](O)CN[C@H]1CC2(CCC2)Oc2ncc(CC(C)(C)C)cc21 [compound 621]
3. CC(C)(C)Cc1cnc2c(c1)[C@@H](NC[C@@H](O)[C@H](Cc1ccc(F)cc1)NC=O)CC1(CCC1)O2 [compound 540]
4. CC(=O)N[C@@H](Cc1ccc(-c2cscn2)cc1)[C@H](O)CN[C@H]1CC2(CCC2)Oc2ncc(CC(C)(C)C)cc21 [compound 693]
5. CO[C@@H](C)C(=O)N[C@@H](Cc1ccc2c(c1)OCO2)[C@H](O)CN[C@H]1CC2(CCC2)Cc2sc(CC(C)(C)C)cc21 [compound 456]

Marked response:
1: 7.00; 2: 6.80; 3: 5.92; 4: 6.70; 5: 6.05

Batch request: pIC50 per item, same order as input.
1. CC(=O)N[C@@H](Cc1ccc(-c2nccs2)cc1)[C@H](O)CN[C@H]1CC2(CCC2)Oc2ncc(CC(C)(C)C)cc21 [Example 677]
2. CC(C)Cc1cnc2c(c1)[C@@H](NC[C@H](O)[C@@H](Cc1cccc(-c3nccs3)c1)NC(=O)[C@H]1CCCO1)CC1(CCC1)O2 [compound 795]
3. CC(=O)N[C@@H](Cc1cccc(F)c1)[C@H](O)CN[C@H]1CC2(CCC2)Oc2c1cc(CC(C)(C)C)nc2-n1ccnc1 [Example 506]
4. CO[C@H](C)C(=O)N[C@@H](Cc1cccc(Br)c1)[C@H](O)CN[C@H]1CC2(CCC2)Oc2ncc(CC(C)C)cc21 [compound 801]
5. COCC(=O)N[C@@H](Cc1ccc(F)c(-c2cncs2)c1)[C@H](O)CN[C@H]1CC2(CCC2)Oc2ncc(CC(C)(C)C)cc21 [compound 684]

Marked response:
1. 7.00
2. 6.70
3. 7.00
4. 6.52
5. 7.00

Would you be so kind as to report pIC50 for each listed record?
1. CC(=O)N[C@@H](Cc1cccc(-c2ncc[nH]2)c1)[C@H](O)CN[C@H]1CC2(CCC2)Oc2ncc(CC(C)(C)C)cc21 [Example 429]
2. CC(=O)N[C@@H](Cc1cccc(-c2cncs2)c1)[C@H](O)CN[C@H]1CC2(CCC2)Oc2ncc(CC(C)(C)C)cc21 [compound 658]
3. COCC(=O)N[C@@H](Cc1ccc(F)cc1)[C@H](O)CN[C@H]1CC2(CCC2)Oc2ncc(CC(C)(C)C#N)cc21 [compound 496]
4. COCC(=O)N[C@@H](C[C@@H]1CCOC1)[C@H](O)CN[C@H]1CC2(CCC2)Oc2ncc(CC(C)(C)C)cc21 [compound 462]
5. COCC(=O)N[C@@H](Cc1ccc(F)cc1)[C@H](O)CN[C@H]1CC2(CCC2)Oc2c1cc(CC(C)(C)C)nc2C#N [compound 493]

Marked response:
1. 5.89
2. 7.00
3. 5.33
4. 5.07
5. 6.22
